Biological target: Adenosine deaminase (Bos taurus)
Sequence (P56658 whole entry): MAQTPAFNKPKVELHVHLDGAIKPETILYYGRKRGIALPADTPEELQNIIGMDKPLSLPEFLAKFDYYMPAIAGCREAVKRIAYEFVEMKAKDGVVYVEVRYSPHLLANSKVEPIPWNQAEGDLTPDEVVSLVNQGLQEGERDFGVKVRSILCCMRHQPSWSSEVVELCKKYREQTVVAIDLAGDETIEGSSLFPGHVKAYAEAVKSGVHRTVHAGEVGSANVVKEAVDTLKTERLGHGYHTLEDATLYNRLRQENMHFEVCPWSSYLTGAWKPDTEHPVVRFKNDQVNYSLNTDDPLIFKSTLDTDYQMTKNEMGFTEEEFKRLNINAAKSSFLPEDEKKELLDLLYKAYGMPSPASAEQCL
Test: Evaluated for the inhibition of calf intestinal Adenosine deaminase (ADA)
reported_endpoint: Ki

The examples below pair each entry with its known result.
O=C(O)C(CCCCn1cnc2c1N=CNCC2O)Cc1cccc(Cl)c1 (centres undefined)	> 7.5 µM
O=P(O)(O)CCCCCn1cnc2c1NC=NCC2O (centres undefined)	> 500 µM
OCCCCn1cnc2c1N=CNCC2O (centres undefined)	6.3 µM
CCOC(=O)C(CCCCn1cnc2c1NC=NCC2O)c1cccc(Br)c1 (centres undefined)	> 7.5 µM
O=C(O)C(CCCCn1cnc2c1N=CNCC2O)Cc1ccccc1Br (centres undefined)	> 7.5 µM
N#CCCCCCCn1cnc2c1NC=NCC2O (centres undefined)	1 µM

For reference, reported Ki for CC(CCCCn1cnc2c1N=CNCC2O)(Cc1cccc(Br)c1)C(=O)O (stereo in doubt; 7w) stands at > 7.5 µM

In plain terms, O=C(O)CCCCCCn1cnc2c1N=CNCC2O (centres undefined) has a documented Ki of 250 µM

Value of Ki reported for the compound OC1CN=CNc2c1ncn2CCCCCc1nnn[nH]1 (centres undefined) is > 7.5 µM
